These measurements were taken from the supplement of paper PMC10724198.

# System: Saccharomyces cerevisiae
# EXPERIMENTAL_PROTOCOL: protein stability index of tFT-peptide fusion (C-terminal peptide) (PSI (0-1 scale)); higher = more stable (slower turnover)
# ASSAY_CONTEXT: genetic background: wild type; temperature: 30 C
Reported values of protein stability index for individual entries
Kindly provide the number alone.

Past entries and their recorded results:
{"MONOMER_SEQUENCE": "RGLPVLTFPHTP", "NUMERIC_RESULT": 0.71}
{"MONOMER_SEQUENCE": "ELKRVCVHRTER", "NUMERIC_RESULT": 0.7}
{"MONOMER_SEQUENCE": "SPCVPTPSRPAS", "NUMERIC_RESULT": 0.685}
{"MONOMER_SEQUENCE": "VCRCYILSFPQR", "NUMERIC_RESULT": 0.688}
{"MONOMER_SEQUENCE": "PPPPPPTPAPPP", "NUMERIC_RESULT": 0.711}
{"MONOMER_SEQUENCE": "TEWIRGTAVNSS", "NUMERIC_RESULT": 0.701}

Exam item: Which protein stability index is reported for this sequence? GGAWESGRVEQV
Marked response: 0.684

Exam item: Do the same for FQPQPSPAHPSH please
Marked response: 0.693

###

# Test system: Saccharomyces cerevisiae
# EXPERIMENTAL_PROTOCOL: protein stability index of tFT-peptide fusion in deletion strain of DAS1 (PSI (0-1 scale)); higher = more stable (slower turnover)
Reported protein stability index is given for each of the following sequences.

{"MONOMER_SEQUENCE": "FSMRWTFRYWIN", "RESULT": 0.469}
{"MONOMER_SEQUENCE": "LKILIQKMNHQN", "RESULT": 0.695}
{"MONOMER_SEQUENCE": "CTQCGYKFRTNN", "RESULT": 0.697}
{"MONOMER_SEQUENCE": "PSLAASFWRVVGE", "RESULT": 0.668}
{"MONOMER_SEQUENCE": "WKHKKGQKQKIN", "RESULT": 0.546}

Exam item: Query: protein stability index; subject: PDKVNHLIKLLN
Marked response: 0.658

Exam item: Also, LVVYLSCCACIN please.
Marked response: 0.138

Exam item: Let us now turn to RLIQLLPVQFLN
Marked response: 0.635

Exam item: Then what about the sequence PSLAASFWEVVG ?
Marked response: 0.712

Exam item: Next up: VREAVGGWRLVG
Marked response: 0.676

###

# System: Saccharomyces cerevisiae
# EXPERIMENTAL_PROTOCOL: protein stability index of tFT-peptide fusion (C-terminal peptide) (PSI (0-1 scale)); higher = more stable (slower turnover)
# ASSAY_CONTEXT: genetic background: cdc34-1; temperature: 37 C
MEASURED_ATTRIBUTE: protein stability index
Please reply with the value in numeric form only.

Here's what some known entries look like.
{"MONOMER_SEQUENCE": "TVLGRDFALSVC", "TARGET_DESC": "Saccharomyces cerevisiae", "protein stability index": 0.455}
{"MONOMER_SEQUENCE": "FVSAFVCLLCLV", "TARGET_DESC": "Saccharomyces cerevisiae", "protein stability index": 0.58}
{"MONOMER_SEQUENCE": "VPVWHTVKLYCF", "TARGET_DESC": "Saccharomyces cerevisiae", "protein stability index": 0.342}
{"MONOMER_SEQUENCE": "VSRAVCLWRRLL", "TARGET_DESC": "Saccharomyces cerevisiae", "protein stability index": 0.479}
{"MONOMER_SEQUENCE": "ALWRAWLRLRIW", "TARGET_DESC": "Saccharomyces cerevisiae", "protein stability index": 0.517}
{"MONOMER_SEQUENCE": "GFSSRWLMQYMV", "TARGET_DESC": "Saccharomyces cerevisiae", "protein stability index": 0.585}
{"MONOMER_SEQUENCE": "GVFVVVGEASVH", "TARGET_DESC": "Saccharomyces cerevisiae", "protein stability index": 0.546}
{"MONOMER_SEQUENCE": "LPPHLPFPLSAA", "TARGET_DESC": "Saccharomyces cerevisiae", "protein stability index": 0.657}

Exam item: // query protein stability index value for entry QVGRPRVGFSRR
Marked response: 0.704

Exam item: Quick one: ILFIVSSCGCVG
Marked response: 0.543

Exam item: Same question, FLFFLFVVFVFV this time
Marked response: 0.256

Exam item: Another sequence: IYFFFFALHFPN
Marked response: 0.498

Exam item: And for SCCIYVALCRWL ?
Marked response: 0.473

###

# Tested on: Saccharomyces cerevisiae
# EXPERIMENTAL_PROTOCOL: protein stability index of tFT-peptide fusion (C-terminal peptide) (PSI (0-1 scale)); higher = more stable (slower turnover)
# ASSAY_CONTEXT: genetic background: das1 deletion; temperature: 30 C
Form field: protein stability index (one value per entry).

Consider the following illustrative entries.
{"MONOMER_SEQUENCE": "VVLWWWVVARDL", "protein stability index": 0.402}
{"MONOMER_SEQUENCE": "VFLCFSWHFFLF", "protein stability index": 0.411}
{"MONOMER_SEQUENCE": "VCVYLVSLPYLA", "protein stability index": 0.39}
{"MONOMER_SEQUENCE": "PLLPLPRFPLFA", "protein stability index": 0.411}

Exam item: I'd like to know its protein stability index. The sequence in question is QARQLEMYMVVF
Marked response: 0.403

###

Listing: protein stability index of selected sequences
# Test system: Saccharomyces cerevisiae
# EXPERIMENTAL_PROTOCOL: protein stability index of tFT-peptide fusion (C-terminal peptide) (PSI (0-1 scale)); higher = more stable (slower turnover)
# ASSAY_CONTEXT: genetic background: das1 deletion; temperature: 30 C
// print number alone

The cases that follow already have their protein stability index on record.
{"MONOMER_SEQUENCE": "LLHYQSWHFSIY [YJL007C C-terminal 12 aa]", "MEASURED_ATTRIBUTE": "protein stability index", "NUMERIC_RESULT": 0.707}
{"MONOMER_SEQUENCE": "EQHNVLDTKKNE [SPC2 C-terminal 12 aa]", "MEASURED_ATTRIBUTE": "protein stability index", "NUMERIC_RESULT": 0.687}
{"MONOMER_SEQUENCE": "KQKALRGEFGAF [RNA15 C-terminal 12 aa]", "MEASURED_ATTRIBUTE": "protein stability index", "NUMERIC_RESULT": 0.709}
{"MONOMER_SEQUENCE": "VDDIVSGVRKQE [CCT3 C-terminal 12 aa]", "MEASURED_ATTRIBUTE": "protein stability index", "NUMERIC_RESULT": 0.691}
{"MONOMER_SEQUENCE": "FDRVRLLVDKIT [HIR3 C-terminal 12 aa]", "MEASURED_ATTRIBUTE": "protein stability index", "NUMERIC_RESULT": 0.683}

Exam item: For the sequence shown here, DQIYWFNHFSNV [AIM2 C-terminal 12 aa] , give the reported protein stability index.
Marked response: 0.714

Exam item: Another sequence to check: LINGTRIMNSIS [VPS33 C-terminal 12 aa]
Marked response: 0.684

Exam item: Same thing, different sequence: SIYDGTEEKIVY [DAL4 C-terminal 12 aa]
Marked response: 0.689

Exam item: HGHHNSSTSGHK [PBP1 C-terminal 12 aa] , same question.
Marked response: 0.694

Exam item: // same read-out, input: DSDNAAPLHDEL [KRE5 C-terminal 12 aa]
Marked response: 0.687

Exam item: Entry to check: GNIVSQDLLDLF [APL2 C-terminal 12 aa]
Marked response: 0.724

###

Listed here are sequences together with their documented protein stability index.
# System: Saccharomyces cerevisiae
# EXPERIMENTAL_PROTOCOL: protein stability index of tFT-peptide fusion (C-terminal peptide) (PSI (0-1 scale)); higher = more stable (slower turnover)
# ASSAY_CONTEXT: genetic background: wild type; temperature: 30 C
Answer as a number with no unit attached.

{"MONOMER_SEQUENCE": "PYSSVPLAPPRP", "TARGET_DESC": "Saccharomyces cerevisiae", "NUMERIC_RESULT": 0.736}
{"MONOMER_SEQUENCE": "VRVSGVSVVRFW", "TARGET_DESC": "Saccharomyces cerevisiae", "NUMERIC_RESULT": 0.667}
{"MONOMER_SEQUENCE": "LSFFDYVLLQIA", "TARGET_DESC": "Saccharomyces cerevisiae", "NUMERIC_RESULT": 0.285}
{"MONOMER_SEQUENCE": "SVSCVSRTVAPS", "TARGET_DESC": "Saccharomyces cerevisiae", "NUMERIC_RESULT": 0.684}
{"MONOMER_SEQUENCE": "RFLVRSFIGWRG", "TARGET_DESC": "Saccharomyces cerevisiae", "NUMERIC_RESULT": 0.669}
{"MONOMER_SEQUENCE": "RGARPRTPPSPP", "TARGET_DESC": "Saccharomyces cerevisiae", "NUMERIC_RESULT": 0.713}
{"MONOMER_SEQUENCE": "PTYRGAPCLPPF", "TARGET_DESC": "Saccharomyces cerevisiae", "NUMERIC_RESULT": 0.728}
{"MONOMER_SEQUENCE": "GPPPLRLWPLPV", "TARGET_DESC": "Saccharomyces cerevisiae", "NUMERIC_RESULT": 0.618}

Exam item: Fill blank: measured protein stability index of the sequence MGVYAVVGTHGV is ____.
Marked response: 0.687

Exam item: Let us now turn to GGVLERSRRRGG
Marked response: 0.741
